Origin of values: patent US10040759B2

Target: GlyT1 (Homo sapiens, UniProt P48067)
Construct: expressed in transfected cells
Sequence (P48067 1-706): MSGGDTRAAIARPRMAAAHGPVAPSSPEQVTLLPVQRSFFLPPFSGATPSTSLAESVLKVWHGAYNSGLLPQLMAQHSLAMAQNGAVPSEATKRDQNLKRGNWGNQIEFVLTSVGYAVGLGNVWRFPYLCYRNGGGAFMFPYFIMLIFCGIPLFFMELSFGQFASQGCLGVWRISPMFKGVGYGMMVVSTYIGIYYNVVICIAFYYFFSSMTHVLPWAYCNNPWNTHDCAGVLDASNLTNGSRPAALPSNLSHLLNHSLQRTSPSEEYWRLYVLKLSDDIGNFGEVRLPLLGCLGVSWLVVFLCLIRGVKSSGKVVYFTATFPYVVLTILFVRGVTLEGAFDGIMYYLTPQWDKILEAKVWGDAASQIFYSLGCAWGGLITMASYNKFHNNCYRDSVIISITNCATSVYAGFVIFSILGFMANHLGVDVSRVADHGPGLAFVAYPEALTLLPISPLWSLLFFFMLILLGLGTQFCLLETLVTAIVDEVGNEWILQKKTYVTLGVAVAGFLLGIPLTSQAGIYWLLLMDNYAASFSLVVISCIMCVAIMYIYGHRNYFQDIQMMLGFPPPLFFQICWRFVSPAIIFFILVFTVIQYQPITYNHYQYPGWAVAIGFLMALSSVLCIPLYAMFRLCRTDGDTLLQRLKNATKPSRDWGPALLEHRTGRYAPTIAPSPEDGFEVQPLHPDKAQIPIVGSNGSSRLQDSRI
Experiment: Glycine Transporter 1 (GlyT1) uptake assay, scintillation proximity assay of [14C]-glycine uptake
Assay type: cell-based
Settings: [14C]-glycine uptake; read-out: GlyT1 (pIC50) (converted)
quantity-measured: IC50

                                   molecule        measured
0  CCS(=O)(=O)c1ccc(OC(C)C)c(C(=O)N2CC(Oc3c(F)cc(F)cc3F)C2)c1OC [Example 244]        < 100 nM
1  COc1c(S(C)(=O)=O)ccc(O[C@@H](C)C(F)(F)F)c1C(=O)N1CC(c2ccc([N+](=O)[O-])cc2)C1 [Example 148]        < 100 nM
2  CCS(=O)(=O)c1ccc(OC(C)C)c(C(=O)N2CC(c3ccc(C(F)(F)F)cc3)C2)c1OC [Example 242]  100 to 1000 nM

query: Supply measured IC50 of C[C@H](Oc1ccc(C#N)c(Cl)c1C(=O)N1CC(c2ccc(C#N)cc2)C1)C(F)(F)F [Example 109] in your reply.
result: 100 to 1000 nM

query: Quick one: give measured IC50 for COc1c(C#N)ccc(C2(F)CCOCC2)c1C(=O)N1CC(Oc2ccc(C(F)(F)F)cc2)C1 [Example 24]
result: 100 to 1000 nM

query: Return the recorded IC50 value; entry: COc1c(C#N)ccc(O[C@@H](C)C(F)(F)F)c1C(=O)N1CC(c2ccc(Cl)cc2)C1 [Example 32]
result: 100 to 1000 nM

query: Find the measured IC50 of COc1c(S(C)(=O)=O)ccc(O[C@@H](C)C(F)(F)F)c1C(=O)N1CC(c2cccc(F)c2F)C1 [Example 157] and report it.
result: < 100 nM
